Field: excreta dose per gram or mL at 1 h. Provide a value for each of the compounds that follow.
# Protocol notes: in vivo
# Reported conditions: male, NODSCID 1L2RγKO, mouse, iv, total radioactivity, Urine uptake
One number for each entry, in %ID/g.

Here are 2 compounds together with their reported answers.
O=C(O)CCCCC(NC(=O)N[C@@H](CCCCNC(=O)[C@H](Cc1c2ccccc2cc2ccccc12)NC(=O)[C@H]1CC[C@H](CNC(=O)CN2CCN(CC(=O)O)CCN(CC(=O)O)CCN(CC(=O)O)CC2)CC1)C(=O)O)C(=O)O (single isomer, unassigned) [68Ga-HTK03189A, metal not drawn] :: 343
O=C(O)CN1CCN(CC(=O)O)CCN(CC(=O)NC[C@H]2CC[C@H](C(=O)N[C@@H](Cc3c4ccccc4cc4ccccc34)C(=O)NCCCC[C@H](NC(=O)N[C@@H](C[C@@H](F)C(=O)O)C(=O)O)C(=O)O)CC2)CCN(CC(=O)O)CC1 [68Ga-HTK04033, metal not drawn] :: 440

// batch mode: one excreta dose per gram or mL at 1 h value per listed entry
1. O=C(O)CCC[C@H](NC(=O)N[C@@H](CCCCNC(=O)[C@H](Cc1cccc(I)c1)NC(=O)[C@H]1CC[C@H](CNC(=O)CN2CCN(CC(=O)O)CCN(CC(=O)O)CCN(CC(=O)O)CC2)CC1)C(=O)O)C(=O)O [68Ga-HTK04053, metal not drawn]
2. O=C(O)CSC[C@H](NC(=O)N[C@@H](CCCCNC(=O)[C@H](Cc1c2ccccc2cc2ccccc12)NC(=O)[C@H]1CC[C@H](CNC(=O)CN2CCN(CC(=O)O)CCN(CC(=O)O)CCN(CC(=O)O)CC2)CC1)C(=O)O)C(=O)O [68Ga-HTK03177, metal not drawn]
3. O=C(O)CN1CCN(CC(=O)O)CCN(CC(=O)NC[C@H]2CC[C@H](C(=O)N[C@@H](Cc3c4ccccc4cc4ccccc34)C(=O)NCCCC[C@H](NC(=O)N[C@@H](C[C@H](F)C(=O)O)C(=O)O)C(=O)O)CC2)CCN(CC(=O)O)CC1 [68Ga-HTK04040, metal not drawn]

Given back:
1: 523; 2: 400; 3: 325

----------
Can you tell me Tumor: Kidney ratio for the items I'm about to list?
# System: PSMA-expressing LNCaP cancer xenografts
# Reported conditions: mouse, in vivo
One number for each entry.

O=C(O)CCC[C@H](NC(=O)N[C@@H](CCCCNC(=O)[C@H](Cc1c2ccccc2cc2ccccc12)NC(=O)Cc1cccc(CNC(=O)CN2CCN(CC(=O)O)CCN(CC(=O)O)CCN(CC(=O)O)CC2)c1)C(=O)O)C(=O)O [68Ga-HTK04037, metal not drawn] :: 3.02
O=C(O)CN1CCN(CC(=O)O)CCN(CC(=O)NC[C@H]2CC[C@H](C(=O)N[C@@H](Cc3c4ccccc4cc4ccccc34)C(=O)NCCCC[C@H](NC(=O)N[C@@H](C[C@@H](F)C(=O)O)C(=O)O)C(=O)O)CC2)CCN(CC(=O)O)CC1 [68Ga-HTK04033, metal not drawn] :: 5.64

Please find the next compound below.
Asked: What does the record list as Tumor: Kidney ratio for O=C(O)CCC[C@H](NC(=O)N[C@@H](CCCCNC(=O)[C@H](Cc1c2ccccc2cc2ccccc12)NC(=O)Cc1ccc(CNC(=O)CN2CCN(CC(=O)O)CCN(CC(=O)O)CCN(CC(=O)O)CC2)cc1)C(=O)O)C(=O)O [68Ga-HTK04036, metal not drawn] ?
Given back: 3.02
